test system: SR; assay: NCI tumour cell line growth inhibition, 48 h
Active and inactive are the calls of the source. No stated cut-off is given here; in the data, active = GI50 up to about 1.1 µM and inactive = higher.

molecule: CC1=C2CCCC2C/C(=N/Nc2ccc([N+](=O)[O-])cc2[N+](=O)[O-])CC1 (centres undefined)
target of assay: SR
GI50: > 100 µM (inactive)
//
molecule: COc1ccc(/C=C(/C#N)C(N)=O)cc1OC
target of assay: SR
GI50: > 100 µM (inactive)
//
molecule: COc1cc2c(c(OC)c1OC)-c1ccc(SC)c(=O)cc1[C@@H](NC(=O)c1ccc(Cl)cc1)CC2
target of assay: SR
GI50: < 0.01 µM (active)
//
molecule: CC(=O)NNC1=NN(C(C)=O)C2(S1)C(=O)Nc1ccc(Br)cc12 (centres undefined)
target of assay: SR
GI50: > 100 µM (inactive)
//
molecule: CCC(C)C(=O)OCC(=O)c1ccc(-c2ccccc2)cc1 (centres undefined)
target of assay: SR
GI50: 31.6 µM (inactive)
//
molecule: COC1=CC(=O)C2C(C1=O)[C@@H]1c3ccccc3C[C@H]21 (some centres undefined)
target of assay: SR
GI50: > 100 µM (inactive)
//
molecule: COC12CCC(C(C(=O)c3ccccc3)=C1C(=O)c1ccccc1)C(O)C2 (centres undefined)
target of assay: SR
GI50: > 100 µM (inactive)
//
molecule: FC(F)(F)c1ccccc1C1SCC2=Nc3ccccc3CN21 (centres undefined)
target of assay: SR
GI50: 21.2 µM (inactive)
//
molecule: Cc1cc(C)c(O)c(CN2CCN(C(C)C)CCN(C(C)C)CC2)c1
target of assay: SR
GI50: 17.9 µM (inactive)

====

test system: SN12C; experiment: NCI tumour cell line growth inhibition, 48 h
Active and inactive are the calls of the source. No stated cut-off is given here; in the data, active = GI50 up to about 1.1 µM and inactive = higher.

compound: Cc1n[nH]c(C(F)(F)F)c1/N=N/N1CCOCC1
GI50: 11 µM (inactive)
//
compound: O[C@H]1[C@H]2[C@H](O)C[C@H](CCOCc3ccccc3)CN2C[C@H]1O
GI50: > 100 µM (inactive)
//
compound: O=c1c2cc([N+](=O)[O-])ccc2[nH]n1Cc1ccccc1Cl
GI50: 86.1 µM (inactive)
//
compound: COc1ccc(/C=C2\N/C(=N\N=C/C(O)C(O)C(O)C(O)CO)NC2=O)cc1 (stereo not drawn)
GI50: 23.9 µM (inactive)
//
compound: Cc1cccc(/C=N/NC(=S)NCCc2ccccn2)n1
GI50: 29.9 µM (inactive)
//
compound: O=C(NNC(=S)Nc1ccccc1)C12CC3CC(CC(C3)C1)C2
GI50: 24.5 µM (inactive)
//
compound: COc1cc(Br)c(/C=N\c2cccc3ccc(OS(=O)(=O)c4cccc([N+](=O)[O-])c4)cc23)cc1OC
GI50: 33.9 µM (inactive)
//
compound: CCOC(=O)Nc1sc2c(c1C#N)CC(C)CC2 (stereo not drawn)
GI50: 9.62 µM (inactive)
//
compound: CCOP(=O)(OCC)C(N)Cc1ccc(OC)c(OC)c1 (stereo not drawn)
GI50: > 100 µM (inactive)
//
compound: C[N+](C)(C)CCC(=O)CC[N+](C)(C)C
GI50: > 10 µM (inactive)
//
compound: O=C(/C=C/c1cccs1)c1cccc(C(=O)/C=C/c2cccs2)n1
GI50: 19.9 µM (inactive)
//
compound: O=C(/C=C/c1ccc(OCc2ccccc2)cc1)NCc1ccc(C(=O)NCc2ccccc2)cc1
GI50: > 100 µM (inactive)
//
compound: Nc1nc2c(C(=O)NCc3cccs3)nnn2c2cccc(Cl)c12
GI50: > 100 µM (inactive)
//
compound: CCN(CC)c1c(C(=O)/C=C/c2ccccc2)c(-c2ccccc2)nn(C)c1=O
GI50: 4.68 µM (inactive)
//
compound: COc1cc(C2c3cc4c(cc3OC(N3CCNCC3)C2C)OCO4)cc(OC)c1OC (stereo not drawn)
GI50: 2.59 µM (inactive)
//
compound: Cc1c2c(c(C)n1-c1ccccc1)C(=O)N(CCSC(=N)N)C2=O
GI50: > 100 µM (inactive)
//
compound: Clc1cc(OCC23CC4CC(CC(C4)C2)C3)nc(OCC23CC4CC(CC(C4)C2)C3)n1
GI50: > 100 µM (inactive)
//
compound: CCc1nnc(S)n1/N=C/c1ccc(-c2ccc([N+](=O)[O-])cc2)o1
GI50: > 100 µM (inactive)
//
compound: COC(=O)[C@@H]1CN(C(=O)CCc2ccccc2)C(=O)N1
GI50: > 100 µM (inactive)
//
compound: FC(F)(F)c1nc(-c2ccccc2)oc1Sc1nnc(Sc2oc(-c3ccccc3)nc2C(F)(F)F)s1
GI50: 39.4 µM (inactive)
//
compound: O=C1/C(=C/c2ccccc2)Oc2cc(O)ccc21
GI50: > 100 µM (inactive)
//
compound: Cc1nsc2cc(Cl)n(C)c(=O)c12
GI50: > 100 µM (inactive)
//
compound: O=S(=O)(O)c1ccc2c(/N=N/c3cccc4ccccc34)c(O)ccc2c1
GI50: > 100 µM (inactive)
